Record form. Attribute: pIC50. Fill in for each entry.
target: Kelch domain of KEAP1 (Homo sapiens (Human), UniProt Q14145); assay: Fluorescence anisotropy assay of KEAP1-NRF2 interaction inhibition; format: binding; conditions: fluorescent NRF2 peptide and Kelch domain of KEAP1, fluorescence anisotropy
Sequence (Q14145 321-609): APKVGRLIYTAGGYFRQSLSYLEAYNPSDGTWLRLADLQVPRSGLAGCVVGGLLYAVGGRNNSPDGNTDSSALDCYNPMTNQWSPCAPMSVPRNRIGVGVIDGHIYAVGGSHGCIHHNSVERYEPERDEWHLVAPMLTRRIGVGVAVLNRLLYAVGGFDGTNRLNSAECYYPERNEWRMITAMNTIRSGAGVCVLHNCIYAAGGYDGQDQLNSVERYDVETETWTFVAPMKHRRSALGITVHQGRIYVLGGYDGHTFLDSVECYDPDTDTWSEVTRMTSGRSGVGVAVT
One number for each entry, as −log10 of the molar value.

COc1ccc(S(=O)(=O)Nc2cnc(N3CCC[C@H]3C(=O)O)c3ccccc23)cc1; 5.30

Field: pIC50. Fill in for each record below.
1. COc1ccc(S(=O)(=O)N(C)c2cnc(N(CC(=O)O)S(=O)(=O)c3ccc(OC)cc3)c3ccccc23)cc1
2. O=C(O)CN(c1cnc(N(CC(=O)O)S(=O)(=O)c2ccc(O)cc2)c2ccccc12)S(=O)(=O)c1ccc(O)cc1
3. [2H]C([2H])([2H])N(c1cnc(N(CC(=O)O)S(=O)(=O)c2ccc(OC)cc2)c2ccccc12)S(=O)(=O)c1ccc(OC)cc1
4. COc1ccc(S(=O)(=O)Nc2ncc(N(CC(=O)O)S(=O)(=O)c3ccc(OC)cc3)c3ccccc23)cc1

output:
[5.96, 6.28, 5.91, 5.92]
